tested on: Streptococcus pneumoniae; assay: Antibacterial activity against Streptococcus pneumoniae assessed as reduction in bacterial growth measured after 24 hrs by two-fold serial dilution method; format: functional
QUANTITY_NAME: MIC (µg/mL)

# example entries with known answers
COMPOUND_STRUCTURE: O=C(Nc1ccc2ccccc2n1)c1ccc2c(c1)OCCCO2
MIC, µg/mL: 25

COMPOUND_STRUCTURE: O=C(Nc1ccnc2ccccc12)c1ccc2c(c1)OCCCO2
MIC, µg/mL: 50

(A) COC(=O)c1c[nH]c2cc(NC(=O)c3ccc4c(c3)OCCCO4)ccc12
(B) O=C(c1ccc2c(c1)OCCCO2)N1CCN(CCO)CC1
Q) Param metric = MIC; output whichever of A , B has the minimum value. Answer = label.
A) A
(A: 6.25 µg/mL, B: 25 µg/mL)

###

tested on: Streptococcus pneumoniae; assay: Antibacterial activity against Streptococcus pneumoniae assessed as reduction in bacterial growth measured after 24 hrs by two-fold serial dilution method; format: functional
QUANTITY_NAME: MIC (µg/mL)

# example entries with known answers
COMPOUND_STRUCTURE: CC(=O)N1CCC(NC(=O)c2ccc3c(c2)OCCCO3)CC1
OUTPUT_UNIT: µg/mL
MIC: 25

COMPOUND_STRUCTURE: O=C(Nc1cncc(Cl)n1)c1ccc2c(c1)OCCCO2
OUTPUT_UNIT: µg/mL
MIC: 50

(1) O=C(Nc1ccc(C(F)(F)F)cn1)c1ccc2c(c1)OCCCO2
(2) CN1CCN(C(=O)c2ccc3c(c2)OCCCO3)CC1
(3) O=C(NCCc1nc2ccccc2[nH]1)c1ccc2c(c1)OCCCO2
Q) Rank order required: MIC, descending. To answer, write out the labels according to the requested order.
A) 3, 1, 2
(3: 50 µg/mL, 1: 25 µg/mL, 2: 12.5 µg/mL)

(A) O=C(c1ccc2c(c1)OCCCO2)N1CCN(Cc2ccccc2)CC1
(B) O=C(c1ccc2c(c1)OCCCO2)N1CCOCC1
Q) Of A and B , whose reported MIC is the larger number? Answer = label.
A) B

###

test system: Klebsiella pneumoniae; assay: Antibacterial activity against Klebsiella pneumoniae assessed as reduction in bacterial growth measured after 24 hrs by two-fold serial dilution method; type: functional
QUANTITY_NAME: MIC (µg/mL)

(a) O=C(Nc1cncc(Cl)n1)c1ccc2c(c1)OCCCO2
(b) CCOC(=O)c1c(NC(=O)c2ccc3c(c2)OCCCO3)sc2c1CCCC2
(c) O=C(Nc1ccc2cc[nH]c2c1)c1ccc2c(c1)OCCCO2
(d) O=C(Nc1ccc(C(F)(F)F)cn1)c1ccc2c(c1)OCCCO2
Q) Sort the compounds on MIC; start with the lowest figure. To answer, write out the labels according to the requested order.
A) c, d, a, b

###

system: Streptococcus pneumoniae; assay: Antibacterial activity against Streptococcus pneumoniae assessed as reduction in bacterial growth measured after 24 hrs by two-fold serial dilution method; format: functional
QUANTITY_NAME: MIC (µg/mL)

COMPOUND: O=C(Nc1ccncn1)c1ccc2c(c1)OCCCO2
OUTPUT_UNIT: µg/mL
VALUE_MEASURED: 50

COMPOUND: CCN1CCN(C(=O)c2ccc3c(c2)OCCCO3)CC1
OUTPUT_UNIT: µg/mL
VALUE_MEASURED: 50

COMPOUND: NC[C@H]1O[C@H](O[C@H]2[C@H](O)[C@@H](O[C@H]3O[C@H](CO)[C@@H](O)[C@H](N)[C@H]3O)[C@H](N)C[C@@H]2N)[C@H](N)[C@@H](O)[C@@H]1O [BEKANAMYCIN]
OUTPUT_UNIT: µg/mL
VALUE_MEASURED: 50
